Record form. Attribute: Post-emergence action against SETVI in %. Fill in for each entry.
- Test system: SETVI
- Procedure Summary: Post-emergence herbicidal action against SETVI
- Format: in vivo, Setaria viridis
- Conditions: dosage 20 g/ha
State the result as a value with its unit after it.

Example cases with answers are listed next.
Compound: CCNC(=O)c1c(C(F)F)ccc(C(=O)Nc2nnnn2CC)c1OC [Example 2-73]
Endpoint Value: 100%

Compound: CCn1nnnc1NC(=O)c1ccc(OC)c(C(=O)NC)c1Cl [Example 2-352]
Endpoint Value: 80%

Provide reported Post-emergence action against SETVI in % for each item, in the same order as listed.
1. CCn1nnnc1NC(=O)c1ccc(C(F)F)c(C(=O)NCC#N)c1Cl [Example 2-158]
2. Cc1c(C(=O)Nc2nnnn2C)ccc(C(F)F)c1C(=O)NCC1CC1 [Example 1-47]
3. CNC(=O)c1c(C(F)F)ccc(C(=O)Nc2nnco2)c1SC [Example 5-74]
4. CC(NC(=O)c1c(C(F)(F)F)ccc(C(=O)Nc2nnnn2C)c1Cl)C1CC1 (stereo not drawn) [Example 1-135]
5. CCNC(=O)c1c(C(F)F)ccc(C(=O)Nc2nnnn2CC)c1C1CC1 [Example 2-305]
6. CCNC(=O)c1c(C(F)F)ccc(C(=O)Nc2nnco2)c1Cl [Example 5-123]
7. CCc1c(C(=O)Nc2nnnn2C)ccc(C(F)(F)F)c1C(=O)NC(C)C1CC1 (stereo not drawn) [Example 1-341]
8. CCn1nnnc1NC(=O)c1ccc(C(F)F)c(C(=O)NCC(F)F)c1SC [Example 2-92]

1. 90%
2. 80%
3. 90%
4. 80%
5. 90%
6. 80%
7. 80%
8. 100%

Provide reported Post-emergence action against SETVI in % for each item, in the same order as listed.
1. COCCNC(=O)c1c(C(F)F)ccc(C(=O)Nc2nnc(C)o2)c1Cl [Example 6-262]
2. CSc1c(C(=O)Nc2nnc(C)o2)ccc(C(F)F)c1C(=O)NC1CC1 [Example 6-76]

80%
80%
